Each entry below carries its reported inhibition at 1 µM.
- System: BMMC
- TEST_DETAILS: Anti-osteoclastogenic activity in C57/BL6 mouse BMMC cells assessed as inhibition of RANKL-induced osteoclast differentiation at 1 uM incubated for 5 to 7 days in presence of M-CSF by TRAP staining based microscopic analysis relative to control
- Assay type: functional
- TEST_CONTEXT: time 5-7 day
MEASURED_PROPERTY: inhibition at 1 µM (%)

1. CC(C)=CCC[C@](C)(O)[C@H]1CC[C@]2(C)[C@@H]1[C@H](O)C[C@@H]1[C@@]3(C)Cc4cnn(-c5ccccc5)c4C(C)(C)[C@@H]3CC[C@]12C 0
2. CCc1ncc2c(n1)C(C)(C)[C@@H]1CC[C@]3(C)[C@H](C[C@@H](O)[C@@H]4[C@@H]([C@@](C)(O)CCC=C(C)C)CC[C@]43C)[C@@]1(C)C2 100
3. CC(C)=CCC[C@](C)(O)[C@H]1CC[C@]2(C)[C@@H]1[C@H](O)C[C@@H]1[C@@]3(C)CC[C@H](O)C(C)(C)[C@@H]3CC[C@]12C 10.2

* * *

- TEST_DETAILS: Microsomal stability in mouse liver microsomes assessed as half life at 1 uM and measured upto 60 mins by LC-MS/ MS analysis
- Format: ADME, Microsome
MEASURED_PROPERTY: half-life at 1 µM (min)

1. C=C(CCC=C(C)C)[C@H]1CC[C@]2(C)[C@@H]1[C@H](O)C[C@@H]1[C@@]3(C)Cc4cnc(C)nc4C(C)(C)[C@@H]3CC[C@]12C 37.1

* * *

- TEST_DETAILS: Tmax in ICR mouse at 1 mg/kg, iv and measured upto 24 hrs by LC-MS/MS analysis
- Assay type: ADME, organism-based
- TEST_CONTEXT: in vivo
MEASURED_PROPERTY: Tmax (min)

1) C=C(CCC=C(C)C)[C@H]1CC[C@]2(C)[C@@H]1[C@H](O)C[C@@H]1[C@@]3(C)Cc4cnc(C)nc4C(C)(C)[C@@H]3CC[C@]12C 4.8

* * *

- TEST_DETAILS: Clearance in ICR mouse at 1 mg/kg, iv and measured upto 24 hrs by LC-MS/MS analysis
- Format: ADME, organism-based
- TEST_CONTEXT: in vivo
MEASURED_PROPERTY: clearance

1) C=C(CCC=C(C)C)[C@H]1CC[C@]2(C)[C@@H]1[C@H](O)C[C@@H]1[C@@]3(C)Cc4cnc(C)nc4C(C)(C)[C@@H]3CC[C@]12C 14.2 mL/min/kg

* * *

- TEST_DETAILS: AUCt in ICR mouse at 10 mg/kg, po and measured upto 24 hrs by LC-MS/MS analysis
- Assay type: ADME, organism-based
- Parameters: dose 10 mg/kg, time < 24 hrs, route po
- TEST_CONTEXT: in vivo
MEASURED_PROPERTY: AUC(0-t) at 24 h (ng·h/mL)

1. C=C(CCC=C(C)C)[C@H]1CC[C@]2(C)[C@@H]1[C@H](O)C[C@@H]1[C@@]3(C)Cc4cnc(C)nc4C(C)(C)[C@@H]3CC[C@]12C 1210

* * *

- TEST_DETAILS: Oral bioavailability in ICR mouse at 10 mg/kg and measured upto 24 hrs by LC-MS/MS analysis
- Format: ADME, organism-based
- TEST_CONTEXT: in vivo
MEASURED_PROPERTY: bioavailability

1) C=C(CCC=C(C)C)[C@H]1CC[C@]2(C)[C@@H]1[C@H](O)C[C@@H]1[C@@]3(C)Cc4cnc(C)nc4C(C)(C)[C@@H]3CC[C@]12C 10.5%

* * *

- TEST_DETAILS: Microsomal stability in mouse liver microsomes assessed as intrinsic clearance at 1 uM and measured upto 60 mins by LC-MS/ MS analysis
- Assay type: ADME, Microsome
- TEST_CONTEXT: read-out: CLH
MEASURED_PROPERTY: microsomal CLint at 1 µM (µL/min/mg)

1) C=C(CCC=C(C)C)[C@H]1CC[C@]2(C)[C@@H]1[C@H](O)C[C@@H]1[C@@]3(C)Cc4cnc(C)nc4C(C)(C)[C@@H]3CC[C@]12C 37.4

* * *

- TEST_DETAILS: Cmax in ICR mouse at 10 mg/kg, po and measured upto 24 hrs by LC-MS/MS analysis
- Type: ADME, organism-based
- Set-up: dose 10 mg/kg, time < 24 hrs, route po
- TEST_CONTEXT: in vivo
MEASURED_PROPERTY: Cmax (ng/mL)

1. C=C(CCC=C(C)C)[C@H]1CC[C@]2(C)[C@@H]1[C@H](O)C[C@@H]1[C@@]3(C)Cc4cnc(C)nc4C(C)(C)[C@@H]3CC[C@]12C 823

* * *

- Tested on: BMMC
- TEST_DETAILS: Anti-osteoclastogenic activity in C57/BL6 mouse BMMC cells assessed as inhibition of RANKL-induced osteoclast differentiation at 1 uM incubated for 5 to 7 days in presence of M-CSF by TRAP staining based microscopic analysis relative to control
- Assay type: functional
- TEST_CONTEXT: time 5-7 day
MEASURED_PROPERTY: inhibition at 1 µM (%)

1) CC(C)=CCC[C@](C)(O)[C@H]1CC[C@]2(C)[C@@H]1[C@H](O)C[C@@H]1[C@@]3(C)Cc4cn[nH]c4C(C)(C)[C@@H]3CC[C@]12C 41.2
2) CC(C)=CCC[C@](C)(O)[C@H]1CC[C@]2(C)[C@@H]1[C@H](O)C[C@@H]1[C@@]3(C)Cc4cnc(C)nc4C(C)(C)[C@@H]3CC[C@]12C 100
3) CC(C)=CCC[C@](C)(O)[C@H]1CC[C@]2(C)[C@@H]1[C@H](O)C[C@@H]1[C@@]3(C)Cc4cnc(N)nc4C(C)(C)[C@@H]3CC[C@]12C 100
4) CCOc1ncc2c(n1)C(C)(C)[C@@H]1CC[C@]3(C)[C@H](C[C@@H](O)[C@@H]4[C@@H]([C@@](C)(O)CCC=C(C)C)CC[C@]43C)[C@@]1(C)C2 94.1
5) CC(C)=CCC[C@](C)(O)[C@H]1CC[C@]2(C)[C@@H]1[C@H](O)C[C@@H]1[C@@]3(C)Cc4nccnc4C(C)(C)[C@@H]3CC[C@]12C 43.7

* * *

- Tested on: BMMC
- TEST_DETAILS: Anti-osteoclastogenic activity in C57/BL6 mouse BMMC cells assessed as inhibition of RANKL-induced osteoclast differentiation at 1 uM incubated for 5 to 7 days in presence of M-CSF by TRAP staining based microscopic analysis relative to control
- Assay type: functional
- TEST_CONTEXT: time 5-7 day
Each entry gets Not met if its inhibition at 1 µM stays under 50%, and Met if its inhibition at 1 µM is 50% or above.

1. CC(C)=CCC[C@](C)(O)[C@H]1CC[C@]2(C)[C@@H]1[C@H](O)C[C@@H]1[C@@]3(C)Cc4cnc(-c5ccccc5)nc4C(C)(C)[C@@H]3CC[C@]12C Not met
2. CC(C)=CCC[C@](C)(O)[C@H]1CC[C@]2(C)[C@@H]1[C@H](O)C[C@@H]1[C@@]3(C)Cc4cncnc4C(C)(C)[C@@H]3CC[C@]12C Met
3. CC(C)=CCC[C@](C)(O)[C@H]1CC[C@]2(C)[C@@H]1[C@H](O)C[C@@H]1[C@@]3(C)Cc4nonc4C(C)(C)[C@@H]3CC[C@]12C Not met
4. CC(C)=CCC[C@](C)(O)[C@H]1CC[C@]2(C)[C@@H]1[C@H](O)C[C@@H]1[C@@]3(C)Cc4cnoc4C(C)(C)[C@@H]3CC[C@]12C Not met
5. COc1ncc2c(n1)C(C)(C)[C@@H]1CC[C@]3(C)[C@H](C[C@@H](O)[C@@H]4[C@@H]([C@@](C)(O)CCC=C(C)C)CC[C@]43C)[C@@]1(C)C2 Met

* * *

- TEST_DETAILS: Microsomal stability in mouse liver microsomes assessed as parent compound remaining at 1 uM and measured after 60 mins by LC-MS/ MS analysis
- Type: ADME, Microsome
- TEST_CONTEXT: read-out: Stability
MEASURED_PROPERTY: remaining at 1 h, 1 µM (%)

1. C=C(CCC=C(C)C)[C@H]1CC[C@]2(C)[C@@H]1[C@H](O)C[C@@H]1[C@@]3(C)Cc4cnc(C)nc4C(C)(C)[C@@H]3CC[C@]12C 31

* * *

- TEST_DETAILS: AUC (0 to infinity) in ICR mouse at 1 mg/kg, iv and measured upto 24 hrs by LC-MS/MS analysis
- Format: ADME, organism-based
- Set-up: dose 1 mg/kg, time < 24 hrs, route iv
- TEST_CONTEXT: in vivo
MEASURED_PROPERTY: AUC(0-inf) (ng·h/mL)

1) C=C(CCC=C(C)C)[C@H]1CC[C@]2(C)[C@@H]1[C@H](O)C[C@@H]1[C@@]3(C)Cc4cnc(C)nc4C(C)(C)[C@@H]3CC[C@]12C 1170
